Consider the following compounds; for each one, report its GI50.
tested on: TK-10; assay: NCI tumour cell line growth inhibition, 48 h
Activity calls are given as the source filed them. Rule as the data show it: active = GI50 up to about 1.1 µM and inactive = higher.

{"Compound": "Cc1ccc(CC(Cc2ccc(C)cc2C(=O)O)C(=O)O)cc1 (centres undefined)", "GI50": "> 100 µM (inactive)"}

List the reported GI50 of each compound below.
1. O=C(O)Cc1cccc2c(=O)c3ccccc3oc12
2. CSc1ccc(NC(=S)NN(C)C)cc1
3. COC1CC(OC2C(C)OC(OC3C(C)OC(OC4C(C)OC(O[C@H]5CC[C@@]6(C)C(=CC[C@]7(O)[C@@H]6C[C@@H](OC(=O)/C=C(\C)C(C)C)[C@@]6(C)[C@]7(O)CC[C@@]6(O)C(C)=O)C5)CC4OC)CC3OC)CC2OC)OC(C)C1O (some centres undefined)

> 100 µM (inactive)
> 10 µM (inactive)
> 12.5 µM (inactive)

Entry source: ChEMBL document CHEMBL1201862
